measured.on: T1, murine IL-11 (mouse, UniProt P47873 22-199)
T1 sequence: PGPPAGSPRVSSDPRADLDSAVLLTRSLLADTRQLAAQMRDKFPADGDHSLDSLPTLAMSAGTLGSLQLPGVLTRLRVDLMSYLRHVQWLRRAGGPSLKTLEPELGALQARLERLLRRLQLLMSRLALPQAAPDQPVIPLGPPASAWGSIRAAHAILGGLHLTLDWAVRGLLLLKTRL
assay.details: cell-based or functional assay
Consider the following binders and their measured IC50, RGA 2 readings.
State just the number; it will be interpreted in nM.

Guide cases for IC50, RGA 2, answers given:
{"binder": "TPP-31310 (antibody, IgG4, V domains shown) VH: EVQLLESGGGLVQPGGSLRLSCAASGFTFSHYDMNWLRQAPGKGLEWVGVISYDSSNKFYADFVKGRFTISRDNSKNTLYLQMNSLRAEDTAVYYCARTPGSHFDYWGQGTLVTVSS VL: QSVLTQPPSASGTPGQRVTISCSGSSSNIGNNAVNWYQQLPGTAPKLLIYYDDLLPSGVPDRFSGSKSGTSASLAISGLRSEDEADYYCSAWDDSLSGVVFGGGTKLTVL", "endpoint.label": "IC50, RGA 2", "data.value": 75}
{"binder": "TPP-31285 (antibody, IgG4, V domains shown, hIgG4 SPLE, lambda) VH: EVQLLESGGGLVQPGGSLRLSCAASGFTFSHYDMNWLRQAPGKGLEWVGVISYDGSNKFYADFVKGRFTISRDNSKNTLYLQMNSLRAEDTAVYYCARTPGSHFDYWGQGTLVTVSS VL: QSVLTQPPSASGTPGQRVTISCSGSSSNIGNNAVNWYQQLPGTAPKLLIYYDDLLPSGVPDRFSGSKSGTSASLAISGLRSEDEADYYCAAWDDSLNGVVFGGGTKLTVL", "endpoint.label": "IC50, RGA 2", "data.value": 23}
{"binder": "TPP-31308 (antibody, IgG4, V domains shown) VH: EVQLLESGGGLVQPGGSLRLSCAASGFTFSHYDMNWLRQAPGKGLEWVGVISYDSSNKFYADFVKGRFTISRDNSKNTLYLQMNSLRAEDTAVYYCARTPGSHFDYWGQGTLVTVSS VL: QSVLTQPPSASGTPGQRVTISCSGSSSNIGNNAVNWYQQLPGTAPKLLIYYDDLLPSGVPDRFSGSKSGTSASLAISGLRSEDEADYYCSAWDDSLNGVVFGGGTKLTVL", "endpoint.label": "IC50, RGA 2", "data.value": 170}

Problem: # IC50, RGA 2 lookup, item TPP-31283 (antibody, IgG4, V domains shown) VH: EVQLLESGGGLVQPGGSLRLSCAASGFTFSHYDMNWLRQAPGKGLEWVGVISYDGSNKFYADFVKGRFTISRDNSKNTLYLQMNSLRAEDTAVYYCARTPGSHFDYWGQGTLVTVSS VL: QSVLTQPPSASGTPGQRVTISCSGSSSNIGNNAVNWYQQLPGTAPKLLIYYDDQLPSGVPDRFSGSKSGTSASLAISGLRSEDEADYYCSAWDDSLNGVVFGGGTKLTVL
Result: 118

Problem: Name the reported IC50, RGA 2 value associated with the binder TPP-18087 (antibody, mouse IgG1, V domains shown) VH: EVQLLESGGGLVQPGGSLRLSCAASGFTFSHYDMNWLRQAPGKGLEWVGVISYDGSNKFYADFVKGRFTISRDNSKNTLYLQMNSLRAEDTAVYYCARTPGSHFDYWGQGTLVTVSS VL: QSVLTQPPSASGTPGQRVTISCSGSSSNIGNNAVNWYQQLPGTAPKLLIYYDDLLPSGVPDRFSGSKSGTSASLAISGLRSEDEADYYCSAWDDSLNGVVFGGGTKLTVLG
Result: 21

These entries and their values trace back to patent US20240317847A1.
